Target: BRD4(BD1) (Homo sapiens, UniProt O60885)
Test: HTRF assay, BRD4(BD1)/histone peptide interaction
Type: binding
Set-up: made in house
Conditions: HTRF; triplicates; NA = IC50 > maximal concentration of compound used
Experimental: HTRF assays were performed in white 384 Well Small Volume™ HiBase Polystyrene Microplates (Greiner) with a total working volume of 20 μL. […] Percentage of inhibition was calculated using the following equation: % inhibition=[(compound signal)−(min signal)]/[(max signal)−(min signal)]*100, where ‘max signal’ is the signal ratio with the compound vehicle alone (DMSO) and ‘min signal’ the signal ratio without peptide. […]
Each entry below carries its recorded pIC50.
Reminder that pIC50 is minus the log10 of a molar concentration.

- MOLECULE: "CS(=O)(=O)NCC1CCC(C(=O)NCCc2cccs2)CC1 (stereo not drawn)"
  pIC50: 4.74

Exercise: Field request: pIC50 | item: CCn1cnc2c1c(=O)[nH]c(=O)n2Cc1ccc(CNS(=O)(=O)c2ccc(OCc3ccccc3)cc2)cc1 [Compound 31a]
Key: 6.45

Exercise: So what's the measured pIC50 for this one? CCn1cnc2c1c(=O)[nH]c(=O)n2Cc1ccc(CNC(=O)c2ccc(N3CCc4ccccc4C3)cc2)cc1 [Compound 34c]
Key: 6.13

Exercise: # input molecule: CCn1cnc2c1c(=O)[nH]c(=O)n2Cc1ccc(CNC(=O)[C@@H]2C[C@@H](c3ccccc3)CN2C(=O)OC(C)(C)C)cc1 [Compound 38a] ; wanted: its pIC50
Key: 5.77

Exercise: What value of measured pIC50 is listed for CCn1cnc2c1c(=O)[nH]c(=O)n2Cc1ccc(CNS(=O)(=O)c2ccc(OC)cc2)cc1 [Compound 30b] ?
Key: 6.16

Exercise: Entry O=C1CCCc2cc(S(=O)(=O)NCC3CCC(C(=O)NCc4cccc(O)c4)CC3)ccc2N1 (stereo not drawn) has what pIC50?
Key: 4.64

Exercise: What value of pIC50 has been recorded for this entry: CCCS(=O)(=O)NCc1ccc(Cn2c(=O)[nH]c(=O)c3c2ncn3CC)cc1 [Compound 20c]
Key: 5.44

Exercise: Please report the recorded pIC50 for CCn1cnc2c1c(=O)[nH]c(=O)n2Cc1ccc(CNS(=O)(=O)c2ccc(Oc3ccccc3)cc2)cc1 [Compound 30c] .
Key: 6.29

Exercise: Given the molecule CCn1cnc2c1c(=O)[nH]c(=O)n2Cc1ccc(CNC(=O)C2CCCC(O)C2)cc1 (stereo not drawn) [Compound 35a] , what is its reported pIC50?
Key: 5.55

Exercise: Field request: pIC50 | item: CCn1cnc2c1c(=O)[nH]c(=O)n2Cc1ccc(CNC(=O)C(N)c2ccc(C)cc2)cc1 (stereo not drawn) [Compound 40a]
Key: 4.74

Exercise: # get_value(readout='pIC50', item= CCn1cnc2c1c(=O)[nH]c(=O)n2Cc1ccc(CNC(=O)[C@@H]2CCC[C@H](NC(=O)OC(C)(C)C)C2)cc1 [Compound 39c] )
Key: 5.82

Exercise: Find the recorded pIC50 belonging to CCn1cnc2c1c(=O)[nH]c(=O)n2Cc1ccc(CNS(=O)(=O)c2ccc(OC3CCCCC3)cc2)cc1 [Compound 43a] and report it.
Key: 6.69

Exercise: Request the reported pIC50 associated with Cc1noc(C)c1CCNC(=O)C1CCC(CNS(=O)(=O)c2ccc3c(c2)CCCC(=O)N3)CC1 (stereo not drawn)
Key: 4.80
